Test system: T-47D breast
Test: NCI-60 one-dose screen, 48 h (100 = growth as untreated, 0 = no growth, -100 = all killed)
Conditions: 10 µM unless noted
This is part of a sample that, as a whole, favours compounds with a hit. Of some 83,000 tested, about 20% had one in any assay.
Collected growth values appear next to each entry.
Entry rule: numbers only, all in %.

Please review the following examples before continuing.
In [3]: df
Out[3]:
                                   compound  test_result
0        CCOS(=O)(=O)c1ccc([N+](=O)[O-])cc1          101
1  Cc1cc2c(C(C)C)c(O)c(O)c(C=Nc3ccccc3[N+](=O)[O-])c2c(O)c1-c1c(C)cc2c(C(C)C)c(O)c(O)c(C=Nc3ccccc3[N+](=O)[O-])c2c1O         83.1
2                                NC(=O)OCCO         94.4

Fill in: growth of `O=CNCCc1ccccc1` is ___
101

Query CC(=O)NC(CCC(=O)c1ccccc1)C(=O)O (configuration not stated) next
83.3

Query `CCCOCc1cn[nH]n1` next
105

Query `CCOC(=O)N[C@H]1CCc2cc(OC)c(OC)c(OC)c2-c2ccc(SC)c(=O)cc21` next
47.7

Query CCC(C)C1CCC(O)CC1 (configuration not stated) next
104

Query `CCOC(=O)C(CCC#N)(CCC#N)C(=O)OCC` next
112

Query O=C(O)C1CSC(c2ccccc2)N1 (configuration not stated) next
101

Query `O=C(O)c1cccc(-n2ncc(Cl)c(Cl)c2=O)c1` next
102

Query `Cc1ccc(N2C(=O)c3cccc4c(N)c(S(=O)(=O)O)cc(c34)C2=O)cc1` next
112

Query `CC(C)N(C(=O)c1ccccc1)C(C)C` next
99.5

Query `Cc1cc2nc(C)c(C)nc2cc1C` next
99.5

Query `O=C(c1ccccc1)c1ccc(-c2ccc(O)cc2)cc1` next
50.6
